# EXPERIMENTAL TARGET: full length human TREX1 (Homo sapiens, UniProt Q9NSU2)
# Construct: N-terminally His-Tev tagged full length human TREX1; made in house; host or cells: E. coli
# Sequence (Q9NSU2 whole entry): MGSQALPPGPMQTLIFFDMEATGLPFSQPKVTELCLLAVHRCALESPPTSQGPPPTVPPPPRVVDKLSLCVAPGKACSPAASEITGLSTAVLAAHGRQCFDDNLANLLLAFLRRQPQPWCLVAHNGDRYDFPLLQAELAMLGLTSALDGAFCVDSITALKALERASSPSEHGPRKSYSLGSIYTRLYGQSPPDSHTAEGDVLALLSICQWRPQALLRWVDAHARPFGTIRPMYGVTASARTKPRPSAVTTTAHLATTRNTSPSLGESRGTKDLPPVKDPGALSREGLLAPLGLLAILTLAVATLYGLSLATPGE
# PROTOCOL DESCRIPTION: hTREX1 Biochemical Assay (fluorescence, dsDNA substrate degradation)
# TEST SETTINGS: biochemical, read-out: hTREX1 IC50
METRIC: IC50

Before answering, review these 5 worked examples.
- MOLECULE: "Cc1nc(C)c(C(c2ccccc2C#N)C(C)c2nc(C(=O)Nc3cnoc3)c(O)c(=O)n2C)nc1C (single isomer, unassigned) [Example 122 D1E1]"
  EXPERIMENTAL TARGET: "full length human TREX1 (Homo sapiens, UniProt Q9NSU2)"
  IC50: "< 1 nM"
- MOLECULE: "CC(=O)N(C)c1nn(C)cc1C(c1ccccc1C#N)C(C)c1nc(C(=O)Nc2cnoc2)c(O)c(=O)n1C (single isomer, unassigned) [Example 153 D1E1]"
  EXPERIMENTAL TARGET: "full length human TREX1 (Homo sapiens, UniProt Q9NSU2)"
  IC50: "> 10 nM"
- MOLECULE: "Cc1n[nH]c(C)c1C(c1ccccc1C#N)C(C)c1nc(C(=O)Nc2cnoc2)c(O)c(=O)n1C (single isomer, unassigned) [Example 95 D2E1]"
  EXPERIMENTAL TARGET: "full length human TREX1 (Homo sapiens, UniProt Q9NSU2)"
  IC50: "> 10 nM"
- MOLECULE: "Cc1cn(C(c2ccccc2Cl)C(C)c2nc(C(=O)Nc3cnoc3)c(O)c(=O)n2C)cn1 (single isomer, unassigned) [Example 142 D1E1]"
  EXPERIMENTAL TARGET: "full length human TREX1 (Homo sapiens, UniProt Q9NSU2)"
  IC50: "> 10 nM"
- MOLECULE: "CC(c1nc(C(=O)Nc2cnoc2)c(O)c(=O)n1C)C(c1cnn(CCN(C)C)c1)c1ccccc1C#N (single isomer, unassigned) [Example 33 D1E1]"
  EXPERIMENTAL TARGET: "full length human TREX1 (Homo sapiens, UniProt Q9NSU2)"
  IC50: "1 to 10 nM"

What does the data say about its IC50? Entry: Cc1ccnn1C(c1ccccc1C#N)C(C)c1nc(C(=O)Nc2cnoc2)c(O)c(=O)n1C (single isomer, unassigned) [Example 138 D1E1]
< 1 nM

What does the data say about its IC50? Entry: CC(c1nc(C(=O)Nc2cnoc2)c(O)c(=O)n1C)C(c1cn(C)cn1)c1ccccc1C#N (single isomer, unassigned) [Example 39 D1E1]
> 10 nM

What does the data say about its IC50? Entry: COCCn1cc(C(c2cc(F)c(F)cc2Cl)C(C)c2nc(C(=O)Nc3cnoc3)c(O)c(=O)n2C)cn1 (single isomer, unassigned) [Example 73 D1E1]
< 1 nM
